experiment: Plasma stability assay, rat plasma; assay type: in vitro ADME; conditions: 37° C., 10 μM, 15 min
API: label(entry) gives Criterion met if the entry's % remaining at time point in minutes, 15 min is strictly smaller than 70%; on equality or larger values it gives Criterion not met.

C=C1CC[C@@]2(O)C3Cc4ccc(OC(=O)CCCCCCC/C=C\CCCCCCCC)c5c4[C@@]2(CCN3CC2CC2)[C@H]1O5 [Compound 36] = Criterion not met
CCCCCCCCCCCCCCCCCCCC(=O)Oc1ccc2c3c1O[C@H]1C(=O)CC[C@@]4(O)C(C2)N(CC2CC2)CC[C@]314 [Compound 50] = Criterion not met
CCCCC/C=C\C/C=C\CCCCCCCC(=O)Oc1ccc2c3c1O[C@H]1C(=O)CC[C@@]4(O)C(C2)N(CC2CC2)CC[C@]314 [Compound 53] = Criterion met
C=C1CC[C@@]2(O)C3Cc4ccc(OC(=O)CCCCCCCCCCCCCCC)c5c4[C@@]2(CCN3CC2CC2)[C@H]1O5 [Compound 56, reference compound] = Criterion not met
C=C1CC[C@@]2(O)C3Cc4ccc(OC(=O)OCCCCCCCC)c5c4[C@@]2(CCN3CC2CC2)[C@H]1O5 [Compound 17] = Criterion met
CCCCCCCCCCCC(=O)OCN1C(=O)CCc2ccc(OCCCCN3CCN(c4cccc(Cl)c4Cl)CC3)cc21 [Aripiprazole lauroxil, reference compound] = Criterion not met
C=C1CC[C@@]2(O)C3Cc4ccc(OC(=O)CCCCCCCCCCCCCCCCCCCCC)c5c4[C@@]2(CCN3CC2CC2)[C@H]1O5 [Compound 14] = Criterion not met
CCCCCCCCCCCCCCC(=O)Oc1ccc2c3c1O[C@H]1C(=O)CC[C@@]4(O)C(C2)N(CC2CC2)CC[C@]314 [Compound 58] = Criterion met
CCCCCCCCCCCCCCCCCCCCCC(=O)Oc1ccc2c3c1O[C@H]1C(=O)CC[C@@]4(O)C(C2)N(CC2CC2)CC[C@]314 [Compound 51] = Criterion not met
CCCCCCCCOC(=O)Oc1ccc2c3c1O[C@H]1C(=O)CC[C@@]4(O)C(C2)N(CC2CC2)CC[C@]314 [Compound 23] = Criterion met
C=C1CC[C@@]2(O)C3Cc4ccc(OC(=O)OCCCCCCCCCCCC)c5c4[C@@]2(CCN3CC2CC2)[C@H]1O5 [Compound 6] = Criterion met

----------
# AUC0-inf (ng · h/mL) prodrug annotations
assay: Dog pharmacokinetic studies, deep intramuscular; format: in vivo, Beagle dogs; conditions: dog IM, 48 mg/kg, Sesame oil + 1% Benzyl Alcohol
reported property: AUC0-inf (ng · h/mL) prodrug (µg·h/mL)

C=C1CC[C@@]2(O)C3Cc4ccc(OC(=O)OCCCCCCCCCCC)c5c4[C@@]2(CCN3CC2CC2)[C@H]1O5 = 0.36
CCCCCCCCCCCOC(=O)OCOc1ccc2c3c1O[C@H]1C(=O)CC[C@@]4(O)C(C2)N(CC2CC2)CC[C@]314 = 0.829
C=C1CC[C@@]2(O)C3Cc4ccc(OCOC(=O)OCCCCCCCCCCC)c5c4[C@@]2(CCN3CC2CC2)[C@H]1O5 = 3.869
C=C1CC[C@@]2(O)C3Cc4ccc(OCOC(=O)OCCCCCCCC/C=C/CCCCCCCC)c5c4[C@@]2(CCN3CC2CC2)[C@H]1O5 = 1.04
CCCCCCCC/C=C/CCCCCCCCOC(=O)OCOc1ccc2c3c1O[C@H]1C(=O)CC[C@@]4(O)C(C2)N(CC2CC2)CC[C@]314 = 0.61
C=C1CC[C@@]2(O)C3Cc4ccc(OC(=O)CCCCCCC/C=C/CCCCCCCC)c5c4[C@@]2(CCN3CC2CC2)[C@H]1O5 = 1.144
